Target: CYP2C9 (Homo sapiens, UniProt P11712)
Sequence (P11712 whole entry): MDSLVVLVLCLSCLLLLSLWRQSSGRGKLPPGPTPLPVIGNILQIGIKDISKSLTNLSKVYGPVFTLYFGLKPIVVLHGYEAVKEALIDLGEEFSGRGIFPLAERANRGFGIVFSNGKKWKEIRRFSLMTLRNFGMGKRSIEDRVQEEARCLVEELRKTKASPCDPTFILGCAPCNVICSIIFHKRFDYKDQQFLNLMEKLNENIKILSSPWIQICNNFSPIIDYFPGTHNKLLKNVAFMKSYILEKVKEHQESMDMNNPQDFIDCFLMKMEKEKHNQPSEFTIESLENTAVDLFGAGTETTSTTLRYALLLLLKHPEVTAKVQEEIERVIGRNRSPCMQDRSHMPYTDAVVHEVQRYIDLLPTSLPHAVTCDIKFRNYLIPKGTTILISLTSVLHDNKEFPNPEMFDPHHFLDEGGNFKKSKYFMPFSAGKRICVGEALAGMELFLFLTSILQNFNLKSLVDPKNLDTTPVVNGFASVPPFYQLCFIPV
Test: Reversible CYP inhibition in human liver microsomes
Conditions: human, microsomes, pH 7.4, Percent of Control Activity, CYP 2C9, 0.979 µM, Zero-Minute Preincubation
observable: activity at 0.979 µM (%)

chemical_smiles=COc1cccc2[nH]c(C(=O)N[C@@H](CC(C)C)C(=O)N[C@@H](C[C@@H]3CCNC3=O)C(=O)CO)cc12 assay_target="CYP2C9 (Homo sapiens, UniProt P11712)" val=99.1

---

Target: CYP1A2 (Homo sapiens)
Assay: Reversible CYP inhibition in human liver microsomes
Conditions: human, microsomes, pH 7.4, Percent of Control Activity, CYP 1A2, 20.5 µM, Zero-Minute Preincubation
observable: activity at 20.5 µM (%)

compound="COc1cccc2[nH]c(C(=O)N[C@@H](CC(C)C)C(=O)N[C@@H](C[C@@H]3CCNC3=O)C(=O)CO)cc12 [PF-00835231]" assay_target="CYP1A2 (Homo sapiens)" observable="activity at 20.5 µM" val=99.4

---

Experiment: in vitro
Settings: African green monkey, CC50
observable: CC50

chemical_smiles=COc1cccc2[nH]c(C(=O)N[C@@H](CC(C)C)C(=O)N[C@@H](C[C@@H]3CCNC3=O)C(=O)COP(=O)(O)O)cc12 val="> 100 µM"
chemical_smiles=COc1cccc2[nH]c(C(=O)N[C@@H](CC(C)C)C(=O)N[C@@H](C[C@@H]3CCNC3=O)C(=O)CO)cc12 val="> 100 µM"

---

Assay: Rat pharmacokinetic study
Conditions: male, Wistar-Hannover, rat, plasma, iv, […], Half life, PF-07304814 prodrug dosed […] intravenous, individual rats
observable: half-life (min)

chemical_smiles=COc1cccc2[nH]c(C(=O)N[C@@H](CC(C)C)C(=O)N[C@@H](C[C@@H]3CCNC3=O)C(=O)COP(=O)(O)O)cc12 val=21.6

---

Molecular target: CYP2C19 (Homo sapiens, UniProt P33261)
Sequence (P33261 whole entry): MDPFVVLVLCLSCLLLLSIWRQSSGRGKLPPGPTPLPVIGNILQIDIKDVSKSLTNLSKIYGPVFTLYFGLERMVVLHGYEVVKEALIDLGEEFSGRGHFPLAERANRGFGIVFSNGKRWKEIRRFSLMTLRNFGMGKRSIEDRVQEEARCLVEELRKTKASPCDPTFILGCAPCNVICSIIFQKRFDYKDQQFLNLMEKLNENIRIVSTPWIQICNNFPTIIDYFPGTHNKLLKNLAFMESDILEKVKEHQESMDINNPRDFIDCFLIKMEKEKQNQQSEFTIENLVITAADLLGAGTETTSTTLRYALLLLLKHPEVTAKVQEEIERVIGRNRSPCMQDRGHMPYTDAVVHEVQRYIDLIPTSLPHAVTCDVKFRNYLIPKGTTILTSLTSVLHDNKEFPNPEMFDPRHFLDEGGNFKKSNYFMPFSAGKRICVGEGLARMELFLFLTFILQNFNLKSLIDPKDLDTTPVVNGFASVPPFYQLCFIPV
Experiment: Reversible CYP inhibition in human liver microsomes
observable: IC50

compound="COc1cccc2[nH]c(C(=O)N[C@@H](CC(C)C)C(=O)N[C@@H](C[C@@H]3CCNC3=O)C(=O)COP(=O)(O)O)cc12 [PF-07304814]" val="> 100 µM"

---

Tested on: CYP3A4/5
Assay: Reversible CYP inhibition in human liver microsomes
Conditions: human, human liver microsomes, pH 7.4, probe testosterone (tst), Percent of Control Activity, CYP 3A4/5 (tst), 0.979 µM, 30-Minute Preincubation
observable: activity at 30 min, 0.979 µM (%)

chemical_smiles=COc1cccc2[nH]c(C(=O)N[C@@H](CC(C)C)C(=O)N[C@@H](C[C@@H]3CCNC3=O)C(=O)CO)cc12 val=116

---

System: CYP3A4/5
Test: in vitro
Conditions: human, microsomes, pH 7.4, Percent of Control Activity, CYP 3A4/5 (mdz), 20.5 µM, 30-Minute Preincubation
observable: activity at 20.5 µM (%)

chemical_smiles=COc1cccc2[nH]c(C(=O)N[C@@H](CC(C)C)C(=O)N[C@@H](C[C@@H]3CCNC3=O)C(=O)CO)cc12 observable="activity at 20.5 µM" unit_abbrev=% val=88.2

---

Assay: Plasma protein binding by equilibrium dialysis
Conditions: both, Beagle, dog, plasma, pH 7.4, Individual fraction unbound, dog plasma, Beagle, male and female, 3.44 uM, Day 2
observable: fraction unbound at 6 h, 3.44 uM

molecule="COc1cccc2[nH]c(C(=O)N[C@@H](CC(C)C)C(=O)N[C@@H](C[C@@H]3CCNC3=O)C(=O)COP(=O)(O)O)cc12 [PF-07304814]" observable="fraction unbound at 6 h, 3.44 uM" val=0.344

---

Assay: Rat pharmacokinetic study
Settings: male, Wistar-Hannover, rat, plasma, iv, 2 mg/kg, Vdss, PF-00835231 active dosed 2mg/kg intravenous, individual rats
observable: Vd

compound="COc1cccc2[nH]c(C(=O)N[C@@H](CC(C)C)C(=O)N[C@@H](C[C@@H]3CCNC3=O)C(=O)CO)cc12 [PF-00835231]" val="0.637 L/kg"

---

Molecular target: UniProtKB P05177
Sequence (P05177 1-516): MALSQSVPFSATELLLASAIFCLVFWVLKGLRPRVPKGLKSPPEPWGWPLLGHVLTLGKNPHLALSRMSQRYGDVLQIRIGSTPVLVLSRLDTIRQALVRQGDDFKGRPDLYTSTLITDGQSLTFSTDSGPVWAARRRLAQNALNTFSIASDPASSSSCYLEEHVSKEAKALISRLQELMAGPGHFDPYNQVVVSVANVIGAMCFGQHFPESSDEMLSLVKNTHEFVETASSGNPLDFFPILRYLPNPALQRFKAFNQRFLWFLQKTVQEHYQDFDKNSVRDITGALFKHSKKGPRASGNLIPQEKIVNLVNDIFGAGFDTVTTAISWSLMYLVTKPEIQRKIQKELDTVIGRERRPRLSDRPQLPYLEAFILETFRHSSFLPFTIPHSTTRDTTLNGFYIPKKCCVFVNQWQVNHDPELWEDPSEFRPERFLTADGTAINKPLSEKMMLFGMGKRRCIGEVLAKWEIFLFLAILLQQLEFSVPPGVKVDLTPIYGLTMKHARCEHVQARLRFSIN
Assay: Reversible CYP inhibition in human liver microsomes
Settings: human, microsomes, pH 7.4, Percent of Control Activity, CYP 1A2, 0.1 µM, 30-Minute Preincubation
observable: activity at 0.1 µM (%)

chemical_smiles=COc1cccc2[nH]c(C(=O)N[C@@H](CC(C)C)C(=O)N[C@@H](C[C@@H]3CCNC3=O)C(=O)CO)cc12 assay_target="UniProtKB P05177" val=98

---

Tested on: CYP3A4/5
Assay: in vitro
Settings: human, microsomes, pH 7.4, Percent of Control Activity, CYP 3A4/5 (tst), 0.1 µM, 30-Minute Preincubation
observable: activity at 30 min, 0.1 µM (%)

compound="COc1cccc2[nH]c(C(=O)N[C@@H](CC(C)C)C(=O)N[C@@H](C[C@@H]3CCNC3=O)C(=O)CO)cc12 [PF-00835231]" val=87.1

---

Biological target: CYP1A2 (Homo sapiens)
Sequence (P05177 1-516): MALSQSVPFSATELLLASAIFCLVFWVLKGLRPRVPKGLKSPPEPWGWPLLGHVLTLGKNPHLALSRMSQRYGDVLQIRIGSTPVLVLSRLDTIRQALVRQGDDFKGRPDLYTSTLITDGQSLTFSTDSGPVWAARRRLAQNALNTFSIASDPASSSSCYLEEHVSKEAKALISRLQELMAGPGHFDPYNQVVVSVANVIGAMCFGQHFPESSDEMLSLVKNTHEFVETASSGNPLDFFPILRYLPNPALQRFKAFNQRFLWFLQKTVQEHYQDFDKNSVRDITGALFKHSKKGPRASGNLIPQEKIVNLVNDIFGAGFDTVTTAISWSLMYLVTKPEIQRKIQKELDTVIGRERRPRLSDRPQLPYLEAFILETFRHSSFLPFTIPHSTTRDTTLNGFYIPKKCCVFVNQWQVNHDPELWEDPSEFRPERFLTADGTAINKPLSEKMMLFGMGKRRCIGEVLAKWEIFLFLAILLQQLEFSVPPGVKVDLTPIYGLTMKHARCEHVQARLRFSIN
Assay: Reversible CYP inhibition in human liver microsomes
Conditions: human, microsomes, pH 7.4, Percent of Control Activity, CYP 1A2, 15.8 µM, Zero-Minute Preincubation
observable: activity at 15.8 µM

compound="COc1cccc2[nH]c(C(=O)N[C@@H](CC(C)C)C(=O)N[C@@H](C[C@@H]3CCNC3=O)C(=O)COP(=O)(O)O)cc12 [PF-07304814]" observable="activity at 15.8 µM" val=100%

---

Biological target: CYP2B6 (Homo sapiens, UniProt P20813)
Sequence (P20813 whole entry): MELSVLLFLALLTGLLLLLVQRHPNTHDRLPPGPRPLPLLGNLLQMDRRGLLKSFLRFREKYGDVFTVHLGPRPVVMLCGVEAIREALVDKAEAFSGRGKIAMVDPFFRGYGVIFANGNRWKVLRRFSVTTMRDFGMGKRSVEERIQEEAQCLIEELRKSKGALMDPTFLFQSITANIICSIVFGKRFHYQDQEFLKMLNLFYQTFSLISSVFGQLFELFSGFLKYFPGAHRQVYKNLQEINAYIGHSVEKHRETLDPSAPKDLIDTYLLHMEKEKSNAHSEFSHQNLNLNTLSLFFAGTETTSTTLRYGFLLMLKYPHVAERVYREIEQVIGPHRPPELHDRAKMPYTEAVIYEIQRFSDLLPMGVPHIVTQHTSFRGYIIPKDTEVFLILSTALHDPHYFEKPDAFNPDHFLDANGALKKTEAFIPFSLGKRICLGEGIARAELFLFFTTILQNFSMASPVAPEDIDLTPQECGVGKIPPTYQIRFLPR
Assay: Reversible CYP inhibition in human liver microsomes
Format: in vitro ADME
Conditions: human, human liver microsomes, pH 7.4, CYP 2B6, 20.5 µM, Zero-Minute Preincubation; read-out: Percent of Control Activity
observable: activity at 20.5 µM (%)

chemical_smiles=COc1cccc2[nH]c(C(=O)N[C@@H](CC(C)C)C(=O)N[C@@H](C[C@@H]3CCNC3=O)C(=O)CO)cc12 unit_abbrev=% val=91.9

---

Target: UniProtKB P33261
Test: Reversible CYP inhibition in human liver microsomes
Conditions: human, microsomes, pH 7.4, Percent of Control Activity, CYP 2C19, 93.5 µM, Zero-Minute Preincubation
observable: activity at 93.5 µM (%)

chemical_smiles=COc1cccc2[nH]c(C(=O)N[C@@H](CC(C)C)C(=O)N[C@@H](C[C@@H]3CCNC3=O)C(=O)CO)cc12 observable="activity at 93.5 µM" val=76.8

---

Molecular target: CYP2C9 (Homo sapiens)
Test: Reversible CYP inhibition in human liver microsomes
Settings: human, microsomes, pH 7.4, Percent of Control Activity, CYP 2C9, 0.214 µM, 30-Minute Preincubation
observable: activity at 0.214 µM

compound="COc1cccc2[nH]c(C(=O)N[C@@H](CC(C)C)C(=O)N[C@@H](C[C@@H]3CCNC3=O)C(=O)CO)cc12 [PF-00835231]" val=102%
